FYI, the data here is from the supplement of paper PMC11061612.

Test system: Raji (Burkitt's Lymphoma)
Test: Bliss excess, mean over the matrix (fraction); higher = more synergy
assay metric: Bliss excess
I only need the number, thanks.

IN: Fill blank: measured Bliss excess of the compound CC(=O)c1c(C)c2cnc(Nc3ccc(N4CCNCC4)cn3)nc2n(C2CCCC2)c1=O [Palbociclib] + CC1(C)CCC(CN2CCN(c3ccc(C(=O)NS(=O)(=O)c4ccc(NCC5CCOCC5)c([N+](=O)[O-])c4)c(Oc4cnc5[nH]ccc5c4)c3)CC2)=C(c2ccc(Cl)cc2)C1 [Venetoclax] (first compound max 10 µM, 7x7, partner max 1 µM) is ____.
OUT: 0.0634

----------
Reported Bliss excess by item:
System: TUR (Acute Myeloid Leukemia)
Assay: Bliss excess, mean over the matrix (fraction); higher = more synergy
I only need the number, thanks.

Below, 2 compounds whose answers are already recorded.
COc1nnc2ccc(N3CCC(c4ccc(OCCN5CCN(C)C(=O)[C@H]5C)cc4)CC3)nn12 [AZD5153] + CCN(CCO)CCCOc1ccc2c(Nc3cc(CC(=O)Nc4cccc(F)c4)[nH]n3)ncnc2c1 [AZD2811] (first compound max 1 µM, 7x7, partner max 1 µM)
0.131
CN(CCO)CC[C@H](CSc1ccccc1)Nc1ccc(S(=O)(=O)NC(=O)c2ccc(N3CCC([C@@H](O)c4ccccc4-c4ccc(Cl)cc4)CC3)cc2)cc1S(=O)(=O)C(F)(F)F [AZD4320] + C[C@@H](Nc1cc(F)cc(F)c1)c1cc(C(=O)N(C)C)cc2c(=O)cc(N3CCOCC3)oc12 [AZD8186] (first compound max 1 µM, 7x7, partner max 3 µM)
0.0019

// next item, Bliss excess requested
IN: # get_value(readout= Bliss excess, system= TUR (Acute Myeloid Leukemia)) for NC1(C(=O)N[C@@H](CCO)c2ccc(Cl)cc2)CCN(c2ncnc3[nH]ccc23)CC1 [Capivasertib] + C[C@@H]1COCCN1C2=NC(=NC(=C2)C3(CC3)[S@](=N)(=O)C)C4=C5C=CNC5=NC=C4 [AZD6738] (first compound max 10 µM, 7x7, partner max 10 µM)
OUT: -0.0398

----------
System: SNU-C2B (Colorectal Carcinoma)
Test: Bliss excess, mean over the matrix (fraction); higher = more synergy
Decision: Bliss excess compared against -0.03; not below it gives 1, below it gives -1.

Known results for molecules:
Cc1c2c(nn1C)CSCc1cc(n(C)n1)CSc1cc(c3ccccc3c1)OCCCc1c(C(=O)O)n(C)c3c-2c(Cl)ccc13 [AZD5991] + CN(C)CCCOc1ccc(-c2ccc3ncc4c(c3c2)n(C2CCOCC2)c(=O)n4C)cn1 [AZD0156] (first compound max 1 µM, 7x7, partner max 1 µM)
1
NC1(C(=O)N[C@@H](CCO)c2ccc(Cl)cc2)CCN(c2ncnc3[nH]ccc23)CC1 [Capivasertib] + COc1nnc2ccc(N3CCC(c4ccc(OCCN5CCN(C)C(=O)[C@H]5C)cc4)CC3)nn12 [AZD5153] (first compound max 10 µM, 7x7, partner max 1 µM)
-1
CC1(C)CCC(CN2CCN(c3ccc(C(=O)NS(=O)(=O)c4ccc(NCC5CCOCC5)c([N+](=O)[O-])c4)c(Oc4cnc5[nH]ccc5c4)c3)CC2)=C(c2ccc(Cl)cc2)C1 [Venetoclax] + Cn1cnc2c(F)c(Nc3ccc(Br)cc3Cl)c(C(=O)NOCCO)cc21 [Selumetinib] (first compound max 1 µM, 7x7, partner max 3 µM)
1
CC(=O)c1c(C)c2cnc(Nc3ccc(N4CCNCC4)cn3)nc2n(C2CCCC2)c1=O [Palbociclib] + CN(CC[C@H](CSC1=CC=CC=C1)NC2=C(C=C(C=C2)S(=O)(=O)NC(=O)C3=CC=C(C=C3)N4CCC(CC4)[C@H](C5=CC=CC=C5C6=CC=C(C=C6)Cl)O)S(=O)(=O)C(F)(F)F)CCO [AZD4320] (first compound max 10 µM, 7x7, partner max 1 µM)
-1
C[C@@H](c1ccc2nccn2c1)n1nnc2ncc(-c3cnn(C)c3)nc21 [Savolitinib] + Cc1c2c(nn1C)CSCc1cc(n(C)n1)CSc1cc(c3ccccc3c1)OCCCc1c(C(=O)O)n(C)c3c-2c(Cl)ccc13 [AZD5991] (first compound max 1 µM, 7x7, partner max 1 µM)
-1
Cc1c2c(nn1C)CSCc1cc(n(C)n1)CSc1cc(c3ccccc3c1)OCCCc1c(C(=O)O)n(C)c3c-2c(Cl)ccc13 [AZD5991] + CC1(C)CCC(CN2CCN(c3ccc(C(=O)NS(=O)(=O)c4ccc(NCC5CCOCC5)c([N+](=O)[O-])c4)c(Oc4cnc5[nH]ccc5c4)c3)CC2)=C(c2ccc(Cl)cc2)C1 [Venetoclax] (first compound max 1 µM, 7x7, partner max 1 µM)
1

Proceed to the following item.
IN: Record COc1nnc2ccc(N3CCC(c4ccc(OCCN5CCN(C)C(=O)[C@H]5C)cc4)CC3)nn12 [AZD5153] + C[C@@H]1COCCN1C2=NC(=NC(=C2)C3(CC3)[S@](=N)(=O)C)C4=C5C=CNC5=NC=C4 [AZD6738] (first compound max 1 µM, 7x7, partner max 10 µM) ; criterion: Bliss excess no lower than -0.03. Met?
OUT: 1

----------
Tested on: KALS-1 (Glioblastoma)
Test: combination Emax (second highest fraction inhibited in the dose matrix, 72 h); higher = more inhibition; extreme values may be limits of the assay
Reported combination Emax by item:
I only need the number, thanks.

Below, 2 compounds whose answers are already recorded.
C=CCn1c(=O)c2cnc(Nc3ccc(N4CCN(C)CC4)cc3)nc2n1-c1cccc(C(C)(C)O)n1 [AZD1775] + C[C@@H]1COCCN1C2=NC(=NC(=C2)C3(CC3)[S@](=N)(=O)C)C4=C5C=CNC5=NC=C4 [AZD6738] (first compound max 1 µM, partner max 10 µM)
0.923
CCN(CCO)CCCOc1ccc2c(Nc3cc(CC(=O)Nc4cccc(F)c4)[nH]n3)ncnc2c1 [AZD2811] + C=CCn1c(=O)c2cnc(Nc3ccc(N4CCN(C)CC4)cc3)nc2n1-c1cccc(C(C)(C)O)n1 [AZD1775] (first compound max 1 µM, partner max 1 µM)
0.841

// next item, combination Emax requested
IN: # get_value(readout= combination Emax, system= KALS-1 (Glioblastoma)) for CC1(C)CCC(CN2CCN(c3ccc(C(=O)NS(=O)(=O)c4ccc(NCC5CCOCC5)c([N+](=O)[O-])c4)c(Oc4cnc5[nH]ccc5c4)c3)CC2)=C(c2ccc(Cl)cc2)C1 [Venetoclax] + COc1cc(Nc2ncc3c(n2)-c2ccc(Cl)cc2C(c2c(F)cccc2OC)=NC3)ccc1C(=O)O [Alisertib] (first compound max 1 µM, 7x7, partner max 10 µM)
OUT: 0.647

----------
System: NCI-H1341 (Small Cell Lung Carcinoma)
Test: combination Emax (second highest fraction inhibited in the dose matrix, 72 h); higher = more inhibition; extreme values may be limits of the assay
assay metric: combination Emax
I only need the number, thanks.

Below, 3 compounds whose answers are already recorded.
COc1cccc(OCCCN)c1-c1cc(Nc2cnc(C#N)cn2)n[nH]1 [Prexasertib] + O=C(c1cc(Cc2n[nH]c(=O)c3ccccc23)ccc1F)N1CCN(C(=O)C2CC2)CC1 [Olaparib] (first compound max 1 µM, 7x7, partner max 10 µM)
0.884
Cc1cc2ncnn2cc1Nc1ncc2c(n1)n(C1CCOCC1)c(=O)n2C [AZD7648] + CN(C)CCCOc1ccc(-c2ccc3ncc4c(c3c2)n(C2CCOCC2)c(=O)n4C)cn1 [AZD0156] (first compound max 10 µM, 7x7, partner max 1 µM)
0.34
CCN(CCO)CCCOc1ccc2c(Nc3cc(CC(=O)Nc4cccc(F)c4)[nH]n3)ncnc2c1 [AZD2811] + C[C@@H]1COCCN1C2=NC(=NC(=C2)C3(CC3)[S@](=N)(=O)C)C4=C5C=CNC5=NC=C4 [AZD6738] (first compound max 1 µM, 7x7, partner max 10 µM)
0.733

IN: Fill blank: measured combination Emax of the compound COc1cc2c(cc1OCCCCCOc1cc3c(cc1OC)C(=O)N1C=C(C)C[C@H]1C=N3)N=C[C@@H]1CC(C)=CN1C2=O [SG3199] + O=C(c1cc(Cc2n[nH]c(=O)c3ccccc23)ccc1F)N1CCN(C(=O)C2CC2)CC1 [Olaparib] (first compound max 0.001 µM, 7x7, partner max 10 µM) is ____.
OUT: 0.193

IN: CC(=O)Nc1cccc(-n2c(=O)n(C3CC3)c(=O)c3c(Nc4ccc(I)cc4F)n(C)c(=O)c(C)c32)c1 [Trametinib] + Cc1nc(-c2cn3c(n2)-c2ccc(-c4cnn(C(C)(C)C(N)=O)c4)cc2OCC3)n(C(C)C)n1 [Taselisib] (first compound max 1 µM, 7x7, partner max 10 µM) ?
OUT: 0.927

IN: CCN(CCO)CCCOc1ccc2c(Nc3cc(CC(=O)Nc4cccc(F)c4)[nH]n3)ncnc2c1 [AZD2811] + O=C(c1cc(Cc2n[nH]c(=O)c3ccccc23)ccc1F)N1CCN(C(=O)C2CC2)CC1 [Olaparib] (first compound max 1 µM, 7x7, partner max 10 µM) ?
OUT: 0.294

IN: C[C@@H](c1ccc2nccn2c1)n1nnc2ncc(-c3cnn(C)c3)nc21 [Savolitinib] + CN(CC[C@H](CSC1=CC=CC=C1)NC2=C(C=C(C=C2)S(=O)(=O)NC(=O)C3=CC=C(C=C3)N4CCC(CC4)[C@H](C5=CC=CC=C5C6=CC=C(C=C6)Cl)O)S(=O)(=O)C(F)(F)F)CCO [AZD4320] (first compound max 1 µM, 7x7, partner max 1 µM) ?
OUT: 1
